study target: IKZF1 (Homo sapiens, UniProt Q13422+Q96SW2)
Sequence (Q13422 whole entry): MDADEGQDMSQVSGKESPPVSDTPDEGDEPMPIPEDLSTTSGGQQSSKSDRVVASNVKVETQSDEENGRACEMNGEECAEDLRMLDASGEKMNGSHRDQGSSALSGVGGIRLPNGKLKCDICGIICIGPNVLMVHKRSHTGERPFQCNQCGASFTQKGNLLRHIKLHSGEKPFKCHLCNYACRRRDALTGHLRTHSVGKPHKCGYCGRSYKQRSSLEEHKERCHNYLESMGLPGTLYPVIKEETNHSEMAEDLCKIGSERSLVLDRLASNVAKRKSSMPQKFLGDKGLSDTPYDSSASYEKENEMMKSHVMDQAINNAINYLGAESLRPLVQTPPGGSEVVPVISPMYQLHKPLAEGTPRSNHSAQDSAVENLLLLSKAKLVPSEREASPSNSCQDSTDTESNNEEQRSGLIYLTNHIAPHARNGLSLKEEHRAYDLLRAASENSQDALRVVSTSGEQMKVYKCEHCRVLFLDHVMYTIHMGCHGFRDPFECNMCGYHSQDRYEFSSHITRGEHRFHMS
Sequence (Q96SW2 whole entry): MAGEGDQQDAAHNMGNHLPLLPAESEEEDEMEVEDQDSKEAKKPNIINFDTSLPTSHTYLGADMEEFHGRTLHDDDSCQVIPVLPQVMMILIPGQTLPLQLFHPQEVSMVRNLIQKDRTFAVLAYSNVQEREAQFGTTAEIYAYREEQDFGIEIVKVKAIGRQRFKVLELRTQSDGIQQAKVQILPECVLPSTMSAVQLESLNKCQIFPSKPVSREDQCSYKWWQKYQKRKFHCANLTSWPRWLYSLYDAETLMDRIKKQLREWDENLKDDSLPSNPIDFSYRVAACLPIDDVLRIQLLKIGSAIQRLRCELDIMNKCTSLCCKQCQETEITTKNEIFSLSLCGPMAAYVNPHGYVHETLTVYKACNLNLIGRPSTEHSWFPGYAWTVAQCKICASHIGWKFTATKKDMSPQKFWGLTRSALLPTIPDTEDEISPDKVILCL
Sequence (Q16531 whole entry partner): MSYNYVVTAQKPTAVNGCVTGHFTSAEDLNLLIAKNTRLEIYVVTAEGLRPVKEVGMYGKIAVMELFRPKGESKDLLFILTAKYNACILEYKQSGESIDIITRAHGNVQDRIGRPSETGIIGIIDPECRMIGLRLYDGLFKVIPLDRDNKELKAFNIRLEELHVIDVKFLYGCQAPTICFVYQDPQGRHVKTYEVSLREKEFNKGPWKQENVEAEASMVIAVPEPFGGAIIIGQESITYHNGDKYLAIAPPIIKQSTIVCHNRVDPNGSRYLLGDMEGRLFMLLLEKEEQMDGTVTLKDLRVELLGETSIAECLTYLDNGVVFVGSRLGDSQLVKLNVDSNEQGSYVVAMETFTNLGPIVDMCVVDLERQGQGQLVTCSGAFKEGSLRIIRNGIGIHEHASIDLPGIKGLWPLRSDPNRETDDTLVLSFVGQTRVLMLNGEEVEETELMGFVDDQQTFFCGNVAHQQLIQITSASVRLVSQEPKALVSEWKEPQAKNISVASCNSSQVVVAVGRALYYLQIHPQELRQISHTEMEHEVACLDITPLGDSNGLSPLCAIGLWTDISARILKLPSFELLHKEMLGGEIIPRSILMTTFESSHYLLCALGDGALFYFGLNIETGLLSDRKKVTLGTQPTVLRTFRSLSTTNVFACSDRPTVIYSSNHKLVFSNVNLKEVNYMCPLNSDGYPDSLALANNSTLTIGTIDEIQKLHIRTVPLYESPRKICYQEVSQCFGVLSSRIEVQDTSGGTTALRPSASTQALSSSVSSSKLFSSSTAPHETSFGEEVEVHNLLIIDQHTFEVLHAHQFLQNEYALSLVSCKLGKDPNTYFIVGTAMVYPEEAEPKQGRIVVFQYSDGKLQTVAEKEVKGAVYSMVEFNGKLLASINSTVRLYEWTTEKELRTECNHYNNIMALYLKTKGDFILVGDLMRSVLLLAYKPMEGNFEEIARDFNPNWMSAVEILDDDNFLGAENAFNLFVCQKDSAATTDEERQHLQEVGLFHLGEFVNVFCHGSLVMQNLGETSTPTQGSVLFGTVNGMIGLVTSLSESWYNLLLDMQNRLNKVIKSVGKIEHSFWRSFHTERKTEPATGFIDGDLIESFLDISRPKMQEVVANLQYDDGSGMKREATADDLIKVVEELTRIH
assay: Prolabel quantification of IKZF1 protein levels in 293GT cells
condition notes: read-out: IKZF1 EC50; Ikaros (IKZF1) degradation, prolabel-tagged fusion protein in 293GT cells; highest concentration 50 µM
DC50 values, listed per item

{"molecule": "CCN[C@H]1CCCC[C@@H]1N(CC)c1ccc2c(c1)CN(C1CCC(=O)NC1=O)C2=O (some centres unmarked)", "DC50": "> 30 µM"}
{"molecule": "CN(c1ccc2c(c1)C(=O)N(C1CCC(=O)NC1=O)C2=O)[C@H]1CCCC[C@@H]1NCC(=O)O (some centres unmarked)", "DC50": "> 30 µM"}
{"molecule": "CN[C@H]1CCC[C@@H]1N(C)c1ccc2c(c1)C(=O)N(C1CCC(=O)NC1=O)C2=O (some centres unmarked)", "DC50": "> 30 µM"}
{"molecule": "O=C1CCC(N2Cc3cc(N[C@H]4CCCC[C@@H]4NCC4CCCCC4)ccc3C2=O)C(=O)N1 (some centres unmarked)", "DC50": "> 30 µM"}
{"molecule": "CCN[C@H]1CCCC[C@@H]1Nc1ccc2c(c1)CN(C1CCC(=O)NC1=O)C2=O (some centres unmarked)", "DC50": "> 30 µM"}
{"molecule": "CN[C@H]1CCCC[C@@H]1N(C)c1ccc2c(c1)C(=O)N(C1CCC(=O)NC1=O)C2=O (some centres unmarked)", "DC50": "0.29 µM"}
{"molecule": "CN(c1ccc2c(c1)C(=O)N(C1CCC(=O)NC1=O)C2=O)[C@H]1CCCC[C@@H]1NCc1ccccc1 (some centres unmarked)", "DC50": "> 30 µM"}
{"molecule": "CN(c1ccc2c(c1)C(=O)N(C1CCC(=O)NC1=O)C2=O)[C@H]1CCCC[C@@H]1NCC1(C(F)(F)F)CC1 (some centres unmarked)", "DC50": "> 30 µM"}
{"molecule": "CN[C@@H]1CCCC[C@H]1N(C)c1ccc2c(c1)CN(C1CCC(=O)NC1=O)C2=O (relative stereo) [Compound I-9]", "DC50": "> 50 µM"}
{"molecule": "CN(C)[C@H]1CCCC[C@@H]1Nc1ccc2c(c1)C(=O)N(C1CCC(=O)NC1=O)C2=O (some centres unmarked)", "DC50": "> 30 µM"}
{"molecule": "O=C1CCC(N2Cc3cc(N[C@H]4CCCC[C@@H]4NCc4ccccc4)ccc3C2=O)C(=O)N1 (some centres unmarked)", "DC50": "> 30 µM"}
{"molecule": "CN[C@H]1CCCC[C@@H]1N(C)c1ccc2c(c1F)CN(C1CCC(=O)NC1=O)C2=O (some centres unmarked)", "DC50": "0.57 µM"}
{"molecule": "N[C@H]1CCCC[C@@H]1Nc1ccc2c(c1)CN(C1CCC(=O)NC1=O)C2=O (some centres unmarked)", "DC50": "> 50 µM"}
{"molecule": "CC(C)N[C@H]1CCCC[C@@H]1Nc1ccc2c(c1)CN(C1CCC(=O)NC1=O)C2=O (some centres unmarked)", "DC50": "> 30 µM"}
{"molecule": "CN[C@@H]1CCCC[C@H]1N(C)c1ccc2c(c1)CN(C1CCC(=O)NC1=O)C2=O (some centres unmarked) [Compound I-2]", "DC50": "> 30 µM"}
{"molecule": "CC(C)CN[C@H]1CCCC[C@@H]1Nc1ccc2c(c1)CN(C1CCC(=O)NC1=O)C2=O (some centres unmarked)", "DC50": "> 30 µM"}
{"molecule": "CN(c1ccc2c(c1)C(=O)N(C1CCC(=O)NC1=O)C2=O)[C@H]1CCCC[C@@H]1N (some centres unmarked)", "DC50": "5.2 µM"}
{"molecule": "CN(C)[C@H]1CCCC[C@@H]1N(C)c1ccc2c(c1)C(=O)N(C1CCC(=O)NC1=O)C2=O (some centres unmarked)", "DC50": "2.37 µM"}
{"molecule": "CN(Cc1ccccc1)[C@H]1CCCC[C@@H]1N(C)c1ccc2c(c1)CN(C1CCC(=O)NC1=O)C2=O (some centres unmarked)", "DC50": "> 50 µM"}
{"molecule": "CN[C@H]1CCCCC[C@@H]1N(C)c1ccc2c(c1)C(=O)N(C1CCC(=O)NC1=O)C2=O (some centres unmarked)", "DC50": "> 30 µM"}
{"molecule": "O=C1CCC(N2Cc3cc(N[C@H]4CCCC[C@@H]4O)ccc3C2=O)C(=O)N1 (some centres unmarked)", "DC50": "> 30 µM"}
{"molecule": "CN[C@H]1CCCC[C@@H]1Nc1ccc2c(c1)CN(C1CCC(=O)NC1=O)C2=O (some centres unmarked)", "DC50": "> 30 µM"}
{"molecule": "O=C1CCC(N2Cc3cc(N[C@H]4CCC[C@@H]4N4CCCCC4)ccc3C2=O)C(=O)N1 (some centres unmarked)", "DC50": "> 30 µM"}
{"molecule": "CCN[C@H]1CCCC[C@@H]1N(C)c1ccc2c(c1)C(=O)N(C1CCC(=O)NC1=O)C2=O (some centres unmarked)", "DC50": "0.051 µM"}
{"molecule": "CN[C@H]1CCCC[C@@H]1N(C)c1ccc2c(c1)CN(C1CCC(=O)NC1=O)C2=O (some centres unmarked)", "DC50": "> 50 µM"}
{"molecule": "CN(c1ccc2c(c1)C(=O)N(C1CCC(=O)NC1=O)C2=O)[C@H]1CCCC[C@@H]1NCc1cccnc1 (some centres unmarked)", "DC50": "> 30 µM"}

----------
study target: IKZF2 (Homo sapiens, UniProt Q96SW2+Q9UKS7)
Sequence (Q9UKS7 whole entry): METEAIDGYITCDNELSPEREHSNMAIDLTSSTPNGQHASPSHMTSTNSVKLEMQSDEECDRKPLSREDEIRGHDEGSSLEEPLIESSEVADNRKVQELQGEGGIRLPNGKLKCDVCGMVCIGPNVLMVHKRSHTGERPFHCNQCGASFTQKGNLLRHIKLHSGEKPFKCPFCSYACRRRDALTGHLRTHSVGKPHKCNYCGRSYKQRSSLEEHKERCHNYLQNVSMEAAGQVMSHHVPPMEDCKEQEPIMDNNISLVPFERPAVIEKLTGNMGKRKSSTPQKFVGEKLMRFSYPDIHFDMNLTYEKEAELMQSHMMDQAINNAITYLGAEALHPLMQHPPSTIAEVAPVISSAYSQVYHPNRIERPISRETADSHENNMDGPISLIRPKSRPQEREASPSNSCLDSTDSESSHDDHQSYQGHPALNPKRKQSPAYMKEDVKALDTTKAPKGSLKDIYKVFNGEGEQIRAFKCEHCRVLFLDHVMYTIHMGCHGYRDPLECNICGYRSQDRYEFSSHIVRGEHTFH
Sequence (Q96SW2 whole entry): as the sequence (Q96SW2 whole entry) above
Sequence (Q16531 whole entry partner): as the sequence (Q16531 whole entry partner) above
assay: Prolabel quantification of IKZF2 protein levels in 293GT cells
condition notes: read-out: IKZF2 EC50; Helios (IKZF2) degradation, prolabel-tagged fusion protein in 293GT cells; highest concentration 50 µM
log10 of DC50 values, listed per item
experimental readout: log10 of DC50 (log10 of the value in nM)

{"compound": "O=C1CCC(N2Cc3cc(N[C@H]4CCC[C@@H]4N4CCCCC4)ccc3C2=O)C(=O)N1 (some centres unmarked) [Compound I-14]", "log10 of DC50": 2.86}
{"compound": "CN[C@H]1CCCC[C@@H]1N(C)c1ccc2c(c1F)CN(C1CCC(=O)NC1=O)C2=O (some centres unmarked) [Compound I-163]", "log10 of DC50": 1.82}
{"compound": "CC(C)N[C@H]1CCCC[C@@H]1Nc1ccc2c(c1)CN(C1CCC(=O)NC1=O)C2=O (some centres unmarked) [Compound I-45]", "log10 of DC50": 2.00}
{"compound": "CCN[C@H]1CCCC[C@@H]1N(C)c1ccc2c(c1)C(=O)N(C1CCC(=O)NC1=O)C2=O (some centres unmarked) [Compound I-104]", "log10 of DC50": 1.69}
{"compound": "CN(C)[C@H]1CCCC[C@@H]1N(C)c1ccc2c(c1)C(=O)N(C1CCC(=O)NC1=O)C2=O (some centres unmarked) [Compound I-96]", "log10 of DC50": 3.20}
{"compound": "CC(C)CN[C@H]1CCCC[C@@H]1Nc1ccc2c(c1)CN(C1CCC(=O)NC1=O)C2=O (some centres unmarked) [Compound I-15]", "log10 of DC50": 1.97}

----------
inhibition at 10 µM values, listed per item
study target: IKZF2 (Homo sapiens, UniProt Q96SW2+Q9UKS7)
assay: Prolabel quantification of IKZF2 protein levels in 293GT cells
condition notes: 24 h, read-out: IKZF2 % protein reduction at 10 µM, 24 h

{"compound": "CN(C)[C@H]1CCCC[C@@H]1N(C)c1ccc2c(c1)C(=O)N(C1CCC(=O)NC1=O)C2=O (stereo partly shown)", "study target": "IKZF2 (Homo sapiens, UniProt Q96SW2+Q9UKS7)", "inhibition at 10 µM (%)": 50}
{"compound": "CN[C@@H]1CCCC[C@H]1N(C)c1ccc2c(c1)CN(C1CCC(=O)NC1=O)C2=O (stereo partly shown)", "study target": "IKZF2 (Homo sapiens, UniProt Q96SW2+Q9UKS7)", "inhibition at 10 µM (%)": 0}
{"compound": "CCN[C@H]1CCCC[C@@H]1N(C)c1ccc2c(c1)C(=O)N(C1CCC(=O)NC1=O)C2=O (stereo partly shown)", "study target": "IKZF2 (Homo sapiens, UniProt Q96SW2+Q9UKS7)", "inhibition at 10 µM (%)": 80}
{"compound": "CN(c1ccc2c(c1)C(=O)N(C1CCC(=O)NC1=O)C2=O)[C@H]1CCCC[C@@H]1NCc1cccnc1 (stereo partly shown)", "study target": "IKZF2 (Homo sapiens, UniProt Q96SW2+Q9UKS7)", "inhibition at 10 µM (%)": 40}
{"compound": "CC(C)CN[C@H]1CCCC[C@@H]1Nc1ccc2c(c1)CN(C1CCC(=O)NC1=O)C2=O (stereo partly shown)", "study target": "IKZF2 (Homo sapiens, UniProt Q96SW2+Q9UKS7)", "inhibition at 10 µM (%)": 60}
{"compound": "CN(c1ccc2c(c1)C(=O)N(C1CCC(=O)NC1=O)C2=O)[C@H]1CCCC[C@@H]1N (stereo partly shown)", "study target": "IKZF2 (Homo sapiens, UniProt Q96SW2+Q9UKS7)", "inhibition at 10 µM (%)": 70}
{"compound": "CN(C)[C@H]1CCCC[C@@H]1Nc1ccc2c(c1)C(=O)N(C1CCC(=O)NC1=O)C2=O (stereo partly shown)", "study target": "IKZF2 (Homo sapiens, UniProt Q96SW2+Q9UKS7)", "inhibition at 10 µM (%)": 50}

Hey, just so you know, these numbers are from patent EP3820574B1.
